Target: DCAF1(WDR) + BRD9-BD(130-250) (Homo sapiens, UniProt Q9H8M2+Q9Y4B6, E1398S)
Sequence (Q9Y4B6 1073-1399 E1398S): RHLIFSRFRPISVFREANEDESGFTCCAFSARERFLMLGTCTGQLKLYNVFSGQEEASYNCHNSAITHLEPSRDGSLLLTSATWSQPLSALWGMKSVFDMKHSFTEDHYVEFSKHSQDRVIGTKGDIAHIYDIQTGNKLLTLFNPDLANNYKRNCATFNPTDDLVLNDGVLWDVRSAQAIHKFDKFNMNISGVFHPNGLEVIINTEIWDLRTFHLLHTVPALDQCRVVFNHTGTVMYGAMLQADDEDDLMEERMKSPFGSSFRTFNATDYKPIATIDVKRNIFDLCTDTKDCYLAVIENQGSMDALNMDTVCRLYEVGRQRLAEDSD
Sequence (Q9H8M2 130-250): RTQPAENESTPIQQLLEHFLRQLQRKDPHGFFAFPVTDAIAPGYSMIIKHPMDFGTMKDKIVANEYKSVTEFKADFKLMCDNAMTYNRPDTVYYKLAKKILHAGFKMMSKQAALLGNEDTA
Assay: SPR ternary binding assay, immobilized DCAF1(WDR), BRD9-BD(130-250) in buffer
Conditions: read-out: Kd2, apparent KD of second sigmoidal transition; in the presence of 0.2 µM BRD9-BD(130-250)
quantity name: Kd (µM)
Provide only the numeric value, understood in µM.

Documented Kd of COc1cc(-c2cn(C)c(=O)c3cnccc23)c(OC)cc1CN1CCC(OCCCCCC(=O)N2CCN(c3ccc4c(NCCN)nc(C5(c6ccc(Cl)cc6)CCCCC5)nc4c3)CC2)CC1 : 6.11

---

Provide the recorded GI50 at 24 h for the entries that follow.
Experiment: Viability by FSC/SSC gate (flow cytometry) in TMD8 BTK-GFP/mCh cells
Assay type: cell-based, human
Details: human, TMD8 BTK-GFP/mCh cells, TMD8 BTK-GFP/mCh, 24 h; read-out: Abs GI50
A bare number is not enough; add the unit after it.

// sample CCN(CC)Cc1ccc(-c2cc3c(-c4cc(F)cc(NC(=O)c5ccc(C(C)(C)O)cc5F)c4C)ncnc3[nH]2)cc1 [compound 17, reference compound] , its GI50 at 24 h was 6.82 µM

GI50 at 24 h in this record for Cc1c(NC(=O)c2ccc(C(C)(C)O)cc2F)cc(F)cc1-c1ncnc2[nH]c(-c3ccc(CN4CCC5(CCNCC5)CC4)cc3)cc12 [compound 18, reference compound] : 9.54 µM

// recorded GI50 at 24 h for Cc1nc(Nc2ncc(C(=O)Nc3c(C)cccc3Cl)s2)cc(N2CCC(OC3CCN(CCCCCCCC(=O)N4CCN(c5ccc6c(NCCN)nc(C7(c8ccc(Cl)cc8)CCCCC7)nc6c5)CC4)CC3)CC2)n1 : 1.2 µM

The compound listed as CC(=O)N1CCN(c2ccc3c(NCCN)nc(C4(c5ccc(Cl)cc5)CCCCC4)nc3c2)CC1 has a reported GI50 at 24 h of 5.22 µM

Short answer for Cc1c(NC(=O)c2ccc(C(C)(C)O)cc2F)cc(F)cc1-c1ncnc2[nH]c(-c3ccc(CNCCOCCOCCOCCOCCOCCOCCOCCOCCOCCOCCOCCOCCC(=O)N4CCN(c5ccc6c(NCCN)nc(C7(c8ccc(Cl)cc8)CCCCC7)nc6c5)CC4)cc3)cc12 : GI50 at 24 h was 4.12 µM

---

Exercise: state measured pKd for each of the molecules provided.
Target: DCAF1(WDR) (Homo sapiens, UniProt Q9Y4B6, E1398S)
Construct: His6 (C); made in house; host or cells: Sf9 insect cells (baculovirus), co-expressed with BirA
Assay: SPR, surface immobilized DCAF1(WDR), binary compound binding
Details: binary, compound alone; spread in brackets; read-out: SPR KD
# log scale: pKd equals minus log10 of the concentration in mol/L

So, CC(=O)NCCOCCOCCOCCOCCOCCOCCC(=O)N1CCN(c2ccc3c(NCCN)nc(C4(c5ccc(Cl)cc5)CCCC4)nc3c2)CC1 ? Its pKd was 7.70

Please fill in: pKd reported for C#CCOCC(=O)N1CCN(c2ccc3c(NCCN)nc(C4(c5ccc(Cl)cc5)CCCCC4)nc3c2)CC1 = 7.30

Record COc1cc(-c2cn(C)c(=O)c3cnccc23)c(OC)cc1CN1CCC(OCCCCCC(=O)N2CCN(c3ccc4c(NCCN)nc(C5(c6ccc(Cl)cc6)CCCCC5)nc4c3)CC2)CC1 . Reported pKd: 7.89
